Source: patent US20250154277A1

# EXPERIMENTAL SYSTEM: T1, human 5T4-His protein (human, UniProt Q13641 32-355)
# T1 construct: also called recombinant 5T4 protein (human 5T4-his tag); human 5T4 protein; not shown: His tag
# T1 sequence (looked up): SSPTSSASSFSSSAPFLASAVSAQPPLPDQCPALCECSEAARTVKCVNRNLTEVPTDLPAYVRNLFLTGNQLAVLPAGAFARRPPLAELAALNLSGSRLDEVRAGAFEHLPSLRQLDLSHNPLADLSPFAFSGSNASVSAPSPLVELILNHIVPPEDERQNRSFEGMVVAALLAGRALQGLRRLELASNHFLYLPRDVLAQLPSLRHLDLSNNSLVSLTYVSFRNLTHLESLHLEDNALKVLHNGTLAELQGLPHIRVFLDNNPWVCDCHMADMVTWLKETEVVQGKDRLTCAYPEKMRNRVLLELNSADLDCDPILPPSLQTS
# ASSAY NOTES: SPR Biacore, Protein A capture
READOUT TYPE: koff (s⁻¹)
The answer is to be given in s⁻¹; state only the numeric part.

[[record]]
binder = "Hu14G12-29 (antibody, V domains shown, humanized) VH: QVQLVQSGAEVKKPGASVKVSCKASGYAFSSSWMNWVRQAPGQGLEWMGRIYREDGHTNYNGKFKGRVTMTADKSITTAYMELSRLRSDDTAVYYCANGGAMDYWGQGTLVTVSS VL: DIQMTQSPSSLSASVGDRVTITCRASQDISNYLNWYQQKPGKAPKLLIYYTSRLHSGVPSRFSGSGSGTDYTLTISSLQPEDIATYFCQQDNTLPWTFGGGTKVEIK"
measure_unit = "s⁻¹"
measurement = 0.0011

[[record]]
binder = "Hu14G12-1 (antibody, V domains shown, humanized) VH: EVQLVQSGAEVKKPGATVKISCKVSGYAFSSSWMNWVQQAPGKGLEWMGRIYREDGHTNYNGKFKGRVTITADTSTDTAYMELSSLRSEDTAVYYCATGGAMDYWGQGTLVTVSS VL: DIQMTQSPSSLSASVGDRVTITCRASQDISNYLNWYQQKPGKAPKLLIYYTSRLHSGVPSRFSGSGSGTDFTFTISSLQPEDIATYYCQQDNTLPWTFGGGTKLEIK"
measure_unit = "s⁻¹"
measurement = 0.0121


// moving on: another record for koff
*Q* Look up koff for this binder: Hu14G12-23 (antibody, V domains shown, humanized) VH: QVQLVQSGAEVKKPGSSVKVSCKASGYAFSSSWMNWVRQAPGQGLEWMGRIYREDGHTNYNGKFKGRVTITADKSTTTAYMELSSLRSEDTAVYYCANGGAMDYWGQGTLVTVSS VL: DIQMTQSPSSLSASVGDRVTITCRASQDISNYLNWYQQKPGKAPKLLIYYTSRLHSGVPSRFSGSGSGTDYTFTISSLQPEDIATYFCQQDNTLPWTFGGGTKVEIK
*A* 0.000908
